# tested_on: hERG (Kv11.1, KCNH2) (Homo sapiens, UniProt Q12809)
# Sequence (Q12809 whole entry): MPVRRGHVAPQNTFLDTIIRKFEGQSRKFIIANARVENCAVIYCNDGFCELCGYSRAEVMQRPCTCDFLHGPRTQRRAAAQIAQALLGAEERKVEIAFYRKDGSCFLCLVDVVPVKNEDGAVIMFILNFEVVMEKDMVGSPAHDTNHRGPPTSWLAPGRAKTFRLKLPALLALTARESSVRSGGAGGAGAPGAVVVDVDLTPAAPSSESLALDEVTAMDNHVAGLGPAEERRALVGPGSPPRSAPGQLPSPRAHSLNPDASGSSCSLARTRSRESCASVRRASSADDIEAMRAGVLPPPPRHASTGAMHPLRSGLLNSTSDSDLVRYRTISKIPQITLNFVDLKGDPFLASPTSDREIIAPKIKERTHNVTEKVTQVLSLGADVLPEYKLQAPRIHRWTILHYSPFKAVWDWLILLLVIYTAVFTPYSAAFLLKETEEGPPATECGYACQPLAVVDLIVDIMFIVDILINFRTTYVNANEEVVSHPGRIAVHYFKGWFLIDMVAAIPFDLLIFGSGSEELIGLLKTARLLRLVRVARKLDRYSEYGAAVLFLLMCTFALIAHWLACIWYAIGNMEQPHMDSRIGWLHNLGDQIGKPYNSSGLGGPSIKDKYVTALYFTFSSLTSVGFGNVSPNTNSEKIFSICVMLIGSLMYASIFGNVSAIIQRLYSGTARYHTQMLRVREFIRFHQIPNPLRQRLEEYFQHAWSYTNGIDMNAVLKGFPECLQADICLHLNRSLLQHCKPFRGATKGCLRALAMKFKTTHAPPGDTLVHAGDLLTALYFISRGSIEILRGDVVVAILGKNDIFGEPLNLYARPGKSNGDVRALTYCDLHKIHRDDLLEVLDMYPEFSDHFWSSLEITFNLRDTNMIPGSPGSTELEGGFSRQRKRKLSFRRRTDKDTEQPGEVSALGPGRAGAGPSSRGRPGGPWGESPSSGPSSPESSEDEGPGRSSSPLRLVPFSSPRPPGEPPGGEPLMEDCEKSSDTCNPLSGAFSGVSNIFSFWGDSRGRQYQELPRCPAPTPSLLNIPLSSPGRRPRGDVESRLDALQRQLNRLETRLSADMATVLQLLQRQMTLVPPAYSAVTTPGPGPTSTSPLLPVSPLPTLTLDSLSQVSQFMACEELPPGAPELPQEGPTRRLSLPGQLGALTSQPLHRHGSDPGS
# procedure_text: in vitro
# Description: MMV: Malaria Box compounds were tested for inhibition of the human ether a go-go related gene (hERG), Kv11.1 channel, using IonWorks 384-well patch clamp electrophysiology at 1.1uM (3 independent assay plates up to 12 cells per concentration).
Would you mind telling me the reported inhibition at 1.1 µM of each entry?
Answers are plain numbers, in %.

Worked set:
COc1ccc(C2c3ccc4ccccc4c3Oc3ncn(CCCn4ccnc4)c(=N)c32)cc1OC (stereo not given); 23
CC1CC2=C(CC1CNCCCN(C)C)C(C)(C)CCC2 (stereo not given); -3
COCCn1c(C)nc2ccccc2c1=O; 3
CN1CCN(c2ncnc3c2[nH]c2ccc(Cl)cc23)CC1; 15
COc1ccc2c(c1)C1(Nc3ccccc3-c3nc4ccccc4n31)C(=O)N2 (stereo not given); 4
CN1C=C(c2ccc3ccccc3n2)C(c2c[nH]c3ccccc23)c2ccccc21 (stereo not given); 8
Cc1ccc(-c2cc3c(SCC(=O)Nc4cc(C(F)(F)F)ccc4Cl)nccn3n2)cc1; 2

# input // fetch hERG (Kv11.1, KCNH2) (Homo sapiens, UniProt Q12809) inhibition at 1.1 µM for "Brc1ccc(Nc2nc3ccccc3nc2Nc2ccc(Br)cc2)cc1"
# output 2
